- TARGET: T1, soluble DR 7 (DRB1*0701) class II molecules purified from EKR EBV-B cells (human), P01903
- T1 chain 1: not shown
- T1 chain 2: not shown
- TEST SUMMARY: peptide competition ELISA, soluble DR 7, biotinylated indicator GFK(A)7, pH 5
pIC50: −log10 of the molar value.
PROPERTY MEASURED: pIC50

Using the record for DPNANPNVDPNANPNV (modifications not checked) , report its pIC50.
< 4.00
